Test Method Notes: Absorption spectra of thiophene derivatives in solvents of different polarity
Format: physicochemical
Measurement Context: 1,4-Dioxane, solvent polarity ET(30) 36.0
# Maximum absorption wavelength annotations
Numeric only. Scale: nm

Sample records with Maximum absorption wavelength:
{"Entry Smiles": "CCCCCCN(CCCCCC)c1ccc(-c2ccc(-c3ccncc3)s2)cc1", "Measured Number": 389}
{"Entry Smiles": "CCCCCCN(CCCCCC)c1ccc(-c2ccc(-c3cc[n+](C)cc3)s2)cc1.[I-]", "Measured Number": 490}
{"Entry Smiles": "CCCCCCN(CCCCCC)c1ccc(-c2ccc(-c3ncccn3)s2)cc1", "Measured Number": 395}

Now consider a different compound.
[in] For "CCCCCCN(CCCCCC)c1ccc(-c2ccc(-c3ccccn3)s2)cc1" , write its Maximum absorption wavelength.
[out] 387

----------
Test Method Notes: Absorption spectra of thiophene derivatives in solvents of different polarity
Format: physicochemical
Measurement Context: Acetone, solvent polarity ET(30) 42.2
// Maximum absorption wavelength lookup, one value per entry
Value expressed in nm; do not type the unit.

The following compounds have reported results that may help.
{"Entry Smiles": "CCCCCCN(CCCCCC)c1ccc(-c2ccc(-c3ccccn3)s2)cc1", "Maximum absorption wavelength, nm": 385}
{"Entry Smiles": "CCCCCCN(CCCCCC)c1ccc(-c2ccc(-c3ncccn3)s2)cc1", "Maximum absorption wavelength, nm": 395}
{"Entry Smiles": "CCCCCCN(CCCCCC)c1ccc(-c2ccc(-c3ccncc3)s2)cc1", "Maximum absorption wavelength, nm": 391}

[in] Quickly give me recorded Maximum absorption wavelength for "CCCCCCN(CCCCCC)c1ccc(-c2ccc(-c3cc[n+](C)cc3)s2)cc1.[I-]"
[out] 501

----------
Test Method Notes: Fluorescence spectra of thiophene derivatives in solvents of different polarity
Type: physicochemical
Measurement Context: Acetone, ET(30) 42.2
Assay Metric: Maximum fluorescence emission wavelength (nm)
# number only, unit nm dropped from output

# annotated cases, reported Maximum fluorescence emission wavelength shown
{"Entry Smiles": "CCCCCCN(CCCCCC)c1ccc(-c2ccc(-c3cc[n+](C)cc3)s2)cc1.[I-]", "Measure Unit": "nm", "Measured Number": 639}
{"Entry Smiles": "CCCCCCN(CCCCCC)c1ccc(-c2ccc(-c3ccccn3)s2)cc1", "Measure Unit": "nm", "Measured Number": 488}
{"Entry Smiles": "CCCCCCN(CCCCCC)c1ccc(-c2ccc(-c3ncccn3)s2)cc1", "Measure Unit": "nm", "Measured Number": 507}

[in] // fetch Maximum fluorescence emission wavelength given entry "CCCCCCN(CCCCCC)c1ccc(-c2ccc(-c3ccncc3)s2)cc1"
[out] 507

----------
Test Method Notes: Absorption spectra of thiophene derivatives in solvents of different polarity
Assay type: physicochemical
Measurement Context: at maximum absorption wavelength; Acetone, ET(30) 42.2
Assay Metric: Molar absorption coefficient

Known results for compounds:
{"Compound": "CCCCCCN(CCCCCC)c1ccc(-c2ccc(-c3ncccn3)s2)cc1 [Compound 5]", "Molar absorption coefficient": "33,000 mol^−1cm^−1"}
{"Compound": "CCCCCCN(CCCCCC)c1ccc(-c2ccc(-c3ccccn3)s2)cc1 [Compound 4]", "Molar absorption coefficient": "33,000 mol^−1cm^−1"}
{"Compound": "CCCCCCN(CCCCCC)c1ccc(-c2ccc(-c3cc[n+](C)cc3)s2)cc1.[I-] [Compound 6]", "Molar absorption coefficient": "36,000 mol^−1cm^−1"}

We now examine a further compound.
[in] Let me know recorded Molar absorption coefficient for CCCCCCN(CCCCCC)c1ccc(-c2ccc(-c3ccncc3)s2)cc1 [Compound 3] , thanks.
[out] 33,000 mol^−1cm^−1
